Value source: patent US11873298B2

Listing: pIC50 of selected molecules
Target: SCD5 (Homo sapiens, UniProt Q86SK9)
Construct: host or cells: S. cerevisiae ole1Δ strain (W303 pdr1Δ pdr3Δ background), plasmid pRS316 with TDH3 promoter and CYC1 terminator
Sequence (Q86SK9 1-330): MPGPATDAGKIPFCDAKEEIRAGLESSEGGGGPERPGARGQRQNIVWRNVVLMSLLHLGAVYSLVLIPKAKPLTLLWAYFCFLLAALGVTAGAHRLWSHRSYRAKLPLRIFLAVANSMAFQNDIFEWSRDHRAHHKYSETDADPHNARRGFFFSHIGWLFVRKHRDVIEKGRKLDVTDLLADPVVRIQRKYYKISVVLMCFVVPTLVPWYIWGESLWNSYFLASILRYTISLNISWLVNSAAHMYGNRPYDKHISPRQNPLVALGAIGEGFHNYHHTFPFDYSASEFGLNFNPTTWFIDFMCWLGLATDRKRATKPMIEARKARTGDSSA
Assay: Growth inhibition of humanized yeast strain expressing SCD5 as sole desaturase
Type: cell-based
Conditions: growth inhibition of humanized yeast strain expressing human SCD5
pIC50: −log10 of the molar value.
Experimental Readout: pIC50

molecule="C=C(F)/C=C/n1ncc2ccc(-c3noc(C4CCN(C(=O)OC(C)(C)C)CC4)n3)cc21 [Compound 738]" qualifier=< value_measured=4.35
molecule="CC(C)n1ncc2ccc(-c3nc(C4CCN(C(=O)c5sccc5Cl)CC4)no3)cc21 [Compound 715]" qualifier== value_measured=7.32
molecule="CC(C)(C)OC(=O)N1CC=C(c2nc(-c3ccc4cnn(C5COC5)c4c3)ns2)CC1 [Compound 633]" qualifier== value_measured=6.67
molecule="CCOC(=O)CC(C)n1ncc2ccc(-c3noc(C4CCN(C(=O)OC(C)(C)C)CC4)n3)cc21 (centres unmarked) [Compound 651]" qualifier== value_measured=4.73
molecule="Cc1nn(C)c2cc(-c3noc(C4CCN(C(=O)[C@@H]5CC(=O)N(c6cccc(C#N)c6)C5)CC4(F)F)n3)ccc12 (some centres unmarked) [Compound 648]" qualifier=< value_measured=4.35
molecule="CC(C)n1ncc2ccc(-c3noc(C4CCN(C(=O)N5CCCC5C#N)CC4)n3)cc21 (centres unmarked) [Compound 666]" qualifier=< value_measured=4.35
molecule="CC(C)n1ncc2ccc(-c3noc(C4CCN(Cc5ncco5)CC4)n3)cc21 [Compound 615]" qualifier== value_measured=5.73
molecule="COC(=O)N1CCC(c2nc(-c3ccc4cnn(C5COC5)c4c3)no2)CC1 [Compound 635]" qualifier== value_measured=6.40
